Origin of the recorded values: PubChem BioAssay

Below: a set of entries, each annotated with reported GFP response, % of DMSO.
Assay: modulators of CIT2-GFP expression in yeast, confirmation, S. cerevisiae, GFP fusion, cherry picks, mother/daughter gates (AID 2274)
Conditions: S. cerevisiae CIT2-GFP strain, flow cytometry, 3 h; measured here: daughter cell gate; at 10 µM; stronger effect = higher value
Parameter: GFP response, % of DMSO (%)

compound=Cc1ccc2nc(Cl)c3nnnn3c2c1 unit=% recorded_value=84.8
compound=Cc1cc(=O)oc2c(C(=O)/C=C\c3cccs3)c(O)ccc12 unit=% recorded_value=99.2
compound=Oc1c(Br)cc(Br)cc1C=Nc1cccc2ncccc12 unit=% recorded_value=99.2
compound=COc1ccc(-c2noc(CCCC(=O)NCCc3ccccc3)n2)cc1OC unit=% recorded_value=101
compound="CC(=O)Oc1ccc(N2C(=O)C3C4C=CC(CO)(O4)C3C2=O)cc1 (configuration not stated)" unit=% recorded_value=112
compound=COC(=O)C1CCN(C(=O)COC(=O)CCc2nc3ccccc3c(=O)[nH]2)CC1 unit=% recorded_value=102
compound=O=C(Nc1cccc(F)c1)c1ccccc1 unit=% recorded_value=99.2
compound=CS/C(N)=N/N=C/c1ccc2c(c1)OCO2 unit=% recorded_value=103
compound=CCCCN(CC)S(=O)(=O)c1ccc(C(=O)Nc2nnc(-c3ccccc3Cl)o2)cc1 unit=% recorded_value=99.1
compound=Cc1ccc(NC(=O)c2ccccc2)cc1 unit=% recorded_value=96.5
compound=CN(C)c1ccc(/C=C/c2cc[n+](C)cc2)cc1 unit=% recorded_value=129
compound=Cc1ccc(-n2nnnc2C(Cl)(Cl)c2nnnn2-c2ccc(C)cc2)cc1 unit=% recorded_value=106

====

Assay: RPL19A-GFP modulators, yeast TOR pathway, confirmation, cell-based, S. cerevisiae, flow cytometry, cherry picks, mother/daughter gates (AID 2270)
Details: S. cerevisiae RPL19A-GFP strain, 3 h, at 10 µM, stronger effect = lower value, 100 = same GFP as DMSO wells
Below: a set of entries, each annotated with reported GFP response vs DMSO.
Parameter: GFP response vs DMSO (%)

compound=Cn1cnc([N+](=O)[O-])c1S(=O)(=O)c1cccc(Cl)c1 recorded_value=103
compound=COc1cc(/C=C/c2ccc3c(Br)cc(Br)c(O)c3n2)ccc1O recorded_value=101
compound="CS(=O)(=O)Nc1ccc(C2=NN(S(C)(=O)=O)C(c3ccccc3)C2)cc1 (centres undefined)" recorded_value=98.7
compound=CCOC(=O)c1ccc2nc(Nc3nc4ccc(F)cc4s3)sc2c1 recorded_value=99.6
compound=O=C(O)CCC(=O)OCC1CCCCC1 recorded_value=96.7
compound=O=C(/C=C/c1c(F)cccc1Cl)c1ccc(F)cc1 recorded_value=104
compound=CCC(=O)Nc1ccc(NC(=O)c2oc3ccccc3c2C)cc1 recorded_value=101
compound=CCCCN(CC)S(=O)(=O)c1ccc(C(=O)Nc2nnc(-c3ccccc3Cl)o2)cc1 recorded_value=98.8
compound="Cc1ccc(N2C(=O)C3C4C=CC(CNC(=S)Nc5ccc(F)cc5)(O4)C3C2=O)cc1 (centres undefined)" recorded_value=98.4
compound=COc1ccc(CCN2C(=O)c3cccc4cccc(c34)C2=O)cc1OC recorded_value=104
compound=CCOc1ccc(NC2=C(Cl)C(=O)N(Cc3ccccc3)C2=O)cc1 recorded_value=98.2
compound="O=S(=O)(c1ccccc1)N1N=C(c2ccccc2)CC1c1ccccc1 (centres undefined)" recorded_value=105
compound=CCOC(=O)N/C(N)=N/c1nc2ccccc2s1 recorded_value=85.9
compound=O=C(Nc1ccccc1C(=O)O)c1ccccc1 recorded_value=100
compound=Cc1nn(C(=O)c2ccco2)c(C)c1Sc1ccccc1 recorded_value=95.6
compound=O=C(Nc1c2ccccc2nc2ccccc12)C(Cl)(Cl)Cl recorded_value=91.7
compound=COC(=O)c1ccccc1OCC(=O)NC1CCCCC1 recorded_value=88.9
compound=O=C(N=Nc1c(O)[nH]c2ccccc12)c1ccco1 recorded_value=98.2
compound=CCCC(=O)c1ccc(N2CCN(C(=O)c3ccc(Br)cc3)CC2)c(F)c1 recorded_value=101
compound=O=[N+]([O-])/C=C/c1cn(Cc2ccc(F)cc2)c2ccccc12 recorded_value=103
compound="c1cc2c(cc1C1CCCCC1)c1c3n2CCCNC3CCC1 (centres undefined)" recorded_value=101
compound=CC(C)CC[n+]1ccccc1/C=C/c1ccc(N(C)C)cc1 recorded_value=98.2
compound=COc1ccc(OC(=O)c2cccc(S(=O)(=O)N3CCCC3)c2)cc1 recorded_value=96.6
compound=C=CCOc1ccc(C(=O)n2cc(C(=O)OC)c3ccccc32)cc1 recorded_value=95.6

====

Assay: modulators of AGP1-GFP expression in yeast TOR pathway, primary screen, cell-based, multiplex flow cytometry, S. cerevisiae (AID 1887);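 note: AGP1-GFP fusion strain of S. cerevisiae within a five-strain barcoded multiplex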
Conditions: 3 h, at 10 µM, stronger effect = higher value
Records with an inconclusive call do not appear.
Below: a set of entries, each annotated with reported GFP response, % of DMSO.
Parameter: GFP response, % of DMSO (%)

compound=COCCOC(=O)c1c(C)oc2ccc(OCc3cc(C(=O)OC)oc3C)cc12 recorded_value=98.1
compound=Cc1ccc2[nH]c3c(c2c1)CN(C)CC3 recorded_value=100
compound="Cn1c(=O)c2c(ncn2CC(O)CO)n(C)c1=O (configuration not stated)" recorded_value=99.4
compound=O=C(O)CCCCCCCC(=O)O recorded_value=97.5
compound=O=C(NNC(=O)c1cccs1)c1ccco1 recorded_value=111
compound="CC(=O)OCC1OC(n2ccc(=O)[nH]c2=O)C(O)C1O (configuration not stated)" recorded_value=101
compound="COC1(C)CC2C(CC1OC(=O)c1cc([N+](=O)[O-])cc([N+](=O)[O-])c1)C2(C)C (configuration not stated)" recorded_value=74.2
compound="COCCc1ccc(OCC(O)CNC(C)C)cc1 (configuration not stated)" recorded_value=97.6
compound=CCOc1ccccc1OCCOc1ccc(F)cc1 recorded_value=91.1
compound="CCOC(=O)NN1C(=O)c2ccccc2NC1c1ccc(OC)c(OC)c1 (configuration not stated)" recorded_value=99.6
compound="CC1(C)OC2OC(C(=O)N/N=C/c3ccccc3F)C3OC(C)(C)OC3C2O1 (configuration not stated)" recorded_value=101
compound="COc1ccc(C=NCC2COc3ccccc3O2)cc1OC (configuration not stated)" recorded_value=95.5

====

Experiment: modulators of MEP2-GFP levels in yeast, confirmation, S. cerevisiae, flow cytometry GFP, cherry picks (AID 2272);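 note: ratio of well signal to plate DMSO mean so 100% equals DMSO level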
Conditions: S. cerevisiae MEP2-GFP strain, 3 h, at 10 µM, stronger effect = higher value
Parameter: GFP response vs DMSO (%)

compound="CC(C)COC(=O)NCC12C=CC(O1)C1C(=O)N(c3ccc(Cl)cc3)C(=O)C12 (stereo unspecified)" unit=% recorded_value=106
compound=Cc1cc2ccccn2c1C(=O)c1ccc([N+](=O)[O-])o1 unit=% recorded_value=132
compound=COc1ccc(N2CCN(C(=O)c3ccc(C)cc3Cl)CC2)cc1 unit=% recorded_value=104
compound=COCc1cc(=O)[nH]c(SCCS(=O)(=O)c2ccc(Cl)cc2Cl)n1 unit=% recorded_value=100
compound=N#C/C(=C/c1ccc(N2CCOCC2)o1)c1ccc(Cl)cc1 unit=% recorded_value=104
compound=COc1ccc2c(/C=C/c3cc[n+](C)cc3)c[nH]c2c1 unit=% recorded_value=199

====

Assay: LAP4-GFP expression modulators in yeast, confirmation, cell-based, cherry picks, flow cytometry, mother/daughter gates (AID 2271);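 note: ratio of sample to DMSO plate mean so 100% equals DMSO level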
Settings: S. cerevisiae LAP4-GFP strain, 3 h, measured here: daughter cell gate response, at 10 µM, stronger effect = higher value, 100 means same as DMSO control
Below: a set of entries, each annotated with reported GFP response relative to DMSO.
Parameter: GFP response relative to DMSO (%)

compound=CC(C)Cn1c(=O)c(C(=O)Nc2ccncc2)c(O)c2ccccc21 parameter="GFP response relative to DMSO" unit=% recorded_value=122
compound=Cc1cc(C)c2c(c1)/C(=C/C(=O)c1ccc(Br)s1)C(=O)N2 parameter="GFP response relative to DMSO" unit=% recorded_value=101
compound=CC(=O)Nc1ccc(NC(=O)c2oc3cc(C)c(C)cc3c2C)cc1 parameter="GFP response relative to DMSO" unit=% recorded_value=99.2
compound=NS(=O)(=O)c1ccc(Sc2ccccn2)c([N+](=O)[O-])c1 parameter="GFP response relative to DMSO" unit=% recorded_value=99.2
compound=Cc1cccc(C(=O)NNC(=S)NC(=O)c2ccccc2)c1 parameter="GFP response relative to DMSO" unit=% recorded_value=117
compound=Cc1ccc2c(nc3s/c(=C\c4ccc(-c5ccccc5C(=O)O)o4)c(=O)n32)c1C parameter="GFP response relative to DMSO" unit=% recorded_value=218
compound="CCCc1[nH]nc2c1C(c1ccccc1OCC)C(C#N)=C(N)O2 (stereo unspecified)" parameter="GFP response relative to DMSO" unit=% recorded_value=98.7
compound="CCCc1nn(-c2ccccc2)c2c1C(c1cccs1)C(C#N)=C(N)O2 (stereo unspecified)" parameter="GFP response relative to DMSO" unit=% recorded_value=92.5
compound=COc1cccc(C(=O)/C=C/c2ccc(SC)cc2)c1 parameter="GFP response relative to DMSO" unit=% recorded_value=104
compound=CCOC(=O)C(=CNNc1ccccc1)C(=O)OCC parameter="GFP response relative to DMSO" unit=% recorded_value=133
compound=COc1cc(/C=C2\N=C(c3c(-c4ccccc4)noc3C)OC2=O)ccc1OC(C)=O parameter="GFP response relative to DMSO" unit=% recorded_value=92.8
